tested on: Pigweed, Palmer (palmer amaranth, palmer pigweed, Amaranthus palmeri); test: Test A1 postemergence, Pigweed, Palmer; type: in vivo; settings: Postemergence, 31 g ai/ha; 0 to 100 scale (0 no effect, 100 complete control); 10 days
Plant response rating, Pigweed, Palmer values by entry
The answer should be a number; do not append a unit.

Use the examples below as a reference point.
[[record]]
molecule = "Cc1cc(C)c(-n2nccc(C)c2=O)cc1NS(=O)(=O)C(F)(F)F [Compound 281]"
reportedvalue = 0

[[record]]
molecule = "CCCCOC1CC(c2cc(NS(=O)(=O)C(F)(F)F)c(C)cc2C)=NO1 (centres unmarked) [Compound 323]"
reportedvalue = 20

[[record]]
molecule = "Cc1c(NS(=O)(=O)C(F)(F)F)cc(C(=O)N2CCOCC2)c(C)c1C [Compound 289]"
reportedvalue = 10

[[record]]
molecule = "Cc1cc(C)c(C2=NOC(OCC(C)C)C2)cc1NS(=O)(=O)C(F)(F)F (centres unmarked) [Compound 322]"
reportedvalue = 0


Req: Name the recorded Plant response rating, Pigweed, Palmer for Cc1c(NS(=O)(=O)C(F)(F)F)cc(C(=O)N2CCCCC2)c(C)c1C [Compound 326] .
Resp: 40

Req: Looking for the measured Plant response rating, Pigweed, Palmer of CCOC(=O)N(c1cc(C(=O)N2CCCCC2)c(C)c(C)c1C)S(=O)(=O)C(F)(F)F [Compound 330] , can you help?
Resp: 0

Req: Given the entry COc1cnn(-c2cc(NS(=O)(=O)C(F)(F)F)c(C)cc2C)c(=O)c1OC [Compound 282] , report its measured Plant response rating, Pigweed, Palmer.
Resp: 0

Req: Sample CCOC(=O)N(c1cc(C(=O)N2CCC(F)(F)CC2)c(C)cc1C)S(=O)(=O)C(F)(F)F [Compound 351] — what was its Plant response rating, Pigweed, Palmer?
Resp: 10

Req: Give its Plant response rating, Pigweed, Palmer value. Item: Cc1cc(C)c(N(COC(=O)C(C)(C)C)S(=O)(=O)C(F)(F)F)cc1C1=NOC2CCCCCC12 (single isomer, unassigned) [Compound 294]
Resp: 10

Req: GET /values?readout=Plant response rating, Pigweed, Palmer&item= CCC1ON=C(c2cc(NS(=O)(=O)C(F)(F)F)c(C)cc2C)C1CC (centres unmarked) [Compound 346]
Resp: 20

Req: // returns reported Plant response rating, Pigweed, Palmer for input Cc1cc(C)c(C2=NOC3COCC23)cc1NS(=O)(=O)C(F)(F)F (centres unmarked) [Compound 297]
Resp: 10

---

test system: ducksalad (Heteranthera limosa); assay: Test B1 flooded paddy test, ducksalad; assay type: in vivo; settings: 250 g ai/ha, Flood, applied to paddy water, 2-leaf stage, visually evaluated after 10 to 14 days
measurementLabel: Plant response rating, Ducksalad (0 to 100 scale, 0 is no effect, 100 is complete control)
Output spec: single numeric token, no unit.

// solved cases for Plant response rating, Ducksalad (0 to 100 scale, 0 is no effect, 100 is complete control) follow
[[record]]
compound = "C#CCN(C)C(=O)c1cc(NS(=O)(=O)C(F)(F)F)c(C)c(C)c1C"
reportedvalue = 60

[[record]]
compound = "CCC1ON=C(c2cc(N(COC(=O)C(C)(C)C)S(=O)(=O)C(F)(F)F)c(C)cc2C)C1CC (centres unmarked) [Compound 347]"
reportedvalue = 55

[[record]]
compound = "Cc1cc(Br)c(NS(=O)(=O)C(F)(F)F)cc1C1=NOC2(CCCC2)C1"
reportedvalue = 60

[[record]]
compound = "Cc1cc(C2CC2)c(NS(=O)(=O)C(F)(F)F)cc1C1=NOC2(CCCC2)C1"
reportedvalue = 0

[[record]]
compound = "Cc1c(C(=O)N2CCOCC2)cc(N(COC(=O)C(C)(C)C)S(=O)(=O)C(F)(F)F)c(C)c1C"
reportedvalue = 80


Req: Any idea what Plant response rating, Ducksalad (0 to 100 scale, 0 is no effect, 100 is complete control) was measured for CCC1ON=C(c2cc(N(C(=O)OCC(C)C)S(=O)(=O)C(F)(F)F)c(C)cc2C)C1CC (centres unmarked) ?
Resp: 30

Req: Any idea what its Plant response rating, Ducksalad (0 to 100 scale, 0 is no effect, 100 is complete control) is? The compound is `Cc1c(NS(=O)(=O)C(F)(F)F)cc(C(=O)N2CCC(C)CC2)c(C)c1C`
Resp: 65

Req: What value of Plant response rating, Ducksalad (0 to 100 scale, 0 is no effect, 100 is complete control) has been recorded for this entry: Cc1cc(C)c(C2=NOC3COCC23)cc1NS(=O)(=O)C(F)(F)F (centres unmarked)
Resp: 50

---

test system: kochia (Bassia scoparia); experiment: Test A preemergence, kochia; assay type: in vivo; details: Preemergence, 125 g ai/ha; visual injury on 0 to 100 scale (0 no effect, 100 complete control), approximately 10 days
measurementLabel: Kochia plant response rating
# output: bare number, no unit

The examples below pair each entry with its known result.
[[record]]
compound = "COC1(OC)CCN(C(=O)c2cc(NS(=O)(=O)C(F)(F)F)c(C)cc2C)CC1 [Compound 101]"
system = "kochia (Bassia scoparia)"
measurementlabel = "Kochia plant response rating"
reportedvalue = 60

[[record]]
compound = "Cc1cc(C)c(N(S(=O)(=O)C(F)(F)F)S(=O)(=O)C(F)(F)F)cc1C1=NOC2(CCSCC2)C1 [Compound 114]"
system = "kochia (Bassia scoparia)"
measurementlabel = "Kochia plant response rating"
reportedvalue = 30

[[record]]
compound = "Cc1cc(C)c(C(=O)N2CC(C)OC(C)C2)cc1NS(=O)(=O)C(F)(F)F (stereo not shown) [Compound 9]"
system = "kochia (Bassia scoparia)"
measurementlabel = "Kochia plant response rating"
reportedvalue = 70

[[record]]
compound = "Cc1cc(C)c(-c2cc(C(C)C)nn(C)c2=O)cc1NS(=O)(=O)C(F)(F)F [Compound 41]"
system = "kochia (Bassia scoparia)"
measurementlabel = "Kochia plant response rating"
reportedvalue = 0

[[record]]
compound = "CCn1cc(-c2cc(NS(=O)(=O)C(F)(F)F)c(C)cc2C)c(=O)n(C)c1=O [Compound 32]"
system = "kochia (Bassia scoparia)"
measurementlabel = "Kochia plant response rating"
reportedvalue = 60


Req: Lookup: Kochia plant response rating / kochia (Bassia scoparia) / Cc1cc(C)c(C(=O)N(C)CC2CC2)cc1NS(=O)(=O)C(F)(F)F [Compound 107]
Resp: 0

Req: Kindly state the measured Kochia plant response rating obtained for Cc1cc(C)c(N(S(C)(=O)=O)S(=O)(=O)C(F)(F)F)cc1-c1cc(C(C)C)nn(C)c1=O [Compound 39] with kochia (Bassia scoparia).
Resp: 0

---

tested on: ragweed (common ragweed, Ambrosia artemisiifolia); assay: Test A preemergence, ragweed; type: in vivo; conditions: Preemergence, 500 g ai/ha; 0 to 100 scale (0 no effect, 100 complete control)
Reported Plant response rating, Ragweed values are given for each entry in this list.
Give only the figure.

[[record]]
compound = "CCC1(CC)CC(c2cc(NS(=O)(=O)C(F)(F)F)c(C)cc2C)=NO1"
reportedvalue = 60

[[record]]
compound = "Cc1c(NS(=O)(=O)C(F)(F)F)cc(C(=O)N2CC(C)OC(C)C2)c(C)c1F (stereo not shown)"
reportedvalue = 100

[[record]]
compound = "COc1cc(C)c(NS(=O)(=O)C(F)(F)F)cc1-c1ccnn(C)c1=O"
reportedvalue = 40


Now look at this entry.
Req: Item under review: `Cc1cc(Cl)c(C2=NOC3(CCCC3)C2)cc1N(S(=O)(=O)C(F)(F)F)S(=O)(=O)C(F)(F)F` . Reported Plant response rating, Ragweed?
Resp: 50

---

system: pigweed (Amaranthus retroflexus); assay: Test A postemergence, pigweed; assay type: in vivo; conditions: Postemergence, 500 g ai/ha; visual injury, 0 to 100 scale (0 no effect, 100 complete control), approx. 10 days
compounds and their reported Plant response rating, Pigweed
Would you mind answering with just the numeric figure?

Req: For the compound shown here, `CCn1cc(-c2cc(N(S(=O)(=O)C(F)(F)F)S(=O)(=O)C(F)(F)F)c(C)cc2C)c(=O)n(C)c1=O` , give the reported Plant response rating, Pigweed.
Resp: 60

Req: I would be grateful if you could share the reported Plant response rating, Pigweed for `CCn1cc(-c2cc(N(S(=O)(=O)C(F)(F)F)S(=O)(=O)C(F)(F)F)c(C)cc2C)c(=O)n(CC)c1=O` .
Resp: 80

Req: GET /values?readout=Plant response rating, Pigweed&item= `COc1cnn(-c2cc(N(S(=O)(=O)C(F)(F)F)S(=O)(=O)C(F)(F)F)c(C)cc2C)c(=O)c1OC`
Resp: 30

---

Here the recorded Pigweed plant response rating is given for each entry.
System: pigweed (Amaranthus retroflexus)
Assay: Test A preemergence, pigweed
Assay type: in vivo
Details: 125 g ai/ha, visual injury on 0 to 100 scale (0 no effect, 100 complete control), approximately 10 days
Description: Seeds of plant species selected from barnyardgrass (Echinochloa crus-galli), kochia (Bassia scoparia), ragweed (common ragweed, Ambrosia artemisiifolia), Ryegrass, Italian (Italian ryegrass, Lolium multiflorum), Foxtail, Giant (giant foxtail, Setaria faberi), and pigweed (Amaranthus retroflexus) were planted into a blend of loam soil and sand and treated preemergence with a directed soil spray using test chemicals formulated in a non-phytotoxic solvent mixture which included a surfactant. […]
// return just the number, without any unit appended

// solved cases for Pigweed plant response rating follow
[[record]]
compound = "Cc1cc(C)c(-n2ncccc2=O)cc1NS(=O)(=O)C(F)(F)F"
measurementlabel = "Pigweed plant response rating"
reportedvalue = 50

[[record]]
compound = "Cc1cc(C)c(N(COC(=O)C2CCCCC2)S(=O)(=O)C(F)(F)F)cc1C1=NOC2(CCCC2)C1"
measurementlabel = "Pigweed plant response rating"
reportedvalue = 100

[[record]]
compound = "CSC1CCCN(C(=O)c2cc(NS(=O)(=O)C(F)(F)F)c(C)cc2C)C1 (stereo not shown)"
measurementlabel = "Pigweed plant response rating"
reportedvalue = 100


# ---- query compound ----
Req: Need Pigweed plant response rating of `Cc1cc(C)c(N(S(=O)(=O)C(F)(F)F)S(=O)(=O)C(F)(F)F)cc1C1=NOC2(CCCCCC2)C1` , thanks.
Resp: 50
